Can you tell me Percent Effect for the items I'm about to list?
biological target: Sialic acid-binding Ig-like lectin 9 (Homo sapiens) (UniProt Q9Y336); experiment: Hs-Siglec9 ALPHAscreen SOP 20170721; parameters: scale not given: direction of the effect not stated beside the values; conditions: 10 µM
Sequence (Q9Y336 whole entry): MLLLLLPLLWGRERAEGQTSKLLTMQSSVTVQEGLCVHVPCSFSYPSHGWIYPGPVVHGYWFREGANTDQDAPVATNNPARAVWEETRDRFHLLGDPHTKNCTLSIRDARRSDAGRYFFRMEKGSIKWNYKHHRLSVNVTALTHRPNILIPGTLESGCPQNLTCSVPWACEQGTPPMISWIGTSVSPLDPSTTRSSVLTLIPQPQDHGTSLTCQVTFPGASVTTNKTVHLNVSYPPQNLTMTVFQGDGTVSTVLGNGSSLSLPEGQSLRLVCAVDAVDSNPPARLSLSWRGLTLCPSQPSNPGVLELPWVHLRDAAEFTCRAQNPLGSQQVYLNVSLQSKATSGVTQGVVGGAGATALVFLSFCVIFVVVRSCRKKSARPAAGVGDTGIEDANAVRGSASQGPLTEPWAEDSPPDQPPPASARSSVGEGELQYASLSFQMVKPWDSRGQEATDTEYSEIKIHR
Could you kindly put the unit after your number?

Documented Percent Effect of CC(C)CN1C[C@H]2CCN(Cc3cccnc3)CC[C@H]2S1(=O)=O : -0.964%

The molecule identified as Cc1noc(C)c1CN(C)C(=O)NC1CCN(C2CC2)CC1 registered its Percent Effect at 0.345%

Looking up O=C(NCCn1ccnc1)N1CCN(Cc2cccs2)CC1 , I see its Percent Effect listed as -6.1%

Entry CCc1ccc(C(=O)N2CCCC(n3cncn3)C2)o1 (stereo unspecified) ; Percent Effect = -2.11%

// recorded Percent Effect for Cc1cc2n(n1)CC(CNC1CCN(c3ccc(F)cc3)CC1)CN2 (stereo unspecified) : 18.6%

Entry COc1ncccc1NC(=O)C1CCN(S(C)(=O)=O)CC1 ; Percent Effect = 4.87%

The reported value for Cn1cc(CCC(=O)N2C[C@H]3CC[C@@H]2CN(Cc2ccccc2)C3)cn1 in terms of Percent Effect is -7.5%

Given item CCn1cc(NC(=O)NCc2ccc(CN3CCOCC3)cc2)cn1 , the value recorded as its Percent Effect is 16%

The molecule identified as O=C(C1SCCc2sccc21)N1CCC(O)CC1 (stereo unspecified) registered its Percent Effect at 0.929%

Documented Percent Effect of CC(C)CN1C[C@@H]2CN(C(=O)[C@H]3CCCO3)C[C@@H]2C1=O : -1.93%

Kindly note the recorded Percent Effect for O=C(NCCc1csc(N2CCCC2)n1)N(C1CCCC1)C1CC1 , which is 16%

---

Would you mind telling me the reported Percent Effect of each entry?
molecular target: Protein translocase subunit SecA (Escherichia coli (strain K12)); test: Assay to Identify E. coli SecA ATPase Inhibitors; type: functional; design: scale not given: direction of the effect not stated beside the values; settings: 30 µM
Measured potencies and affinities stand elsewhere.
Answer with a number only, understood to be in %.

// returns Percent Effect for CC(C)(CNC(=O)NCCOc1cccc(F)c1)C(N)=O with Protein translocase subunit SecA (Escherichia coli (strain K12)); value = -3.85

Per the reported Protein translocase subunit SecA (Escherichia coli (strain K12)) data, Cc1ccc(CC(=O)N2CCc3nnc(N(C)C)cc3C2)cn1 has Percent Effect of 0.88

Case CO[C@H]1CCN(Cc2cccc(C)n2)[C@@H]2CN(Cc3cccnc3)C[C@H]12 , Protein translocase subunit SecA (Escherichia coli (strain K12)), Percent Effect recorded as -4.37

Percent Effect value, target or system Protein translocase subunit SecA (Escherichia coli (strain K12)), for O=S(=O)(Nc1cnn(C2CCOCC2)c1)c1ccc2c(c1)CCO2 : -1.97

Kindly note: Protein translocase subunit SecA (Escherichia coli (strain K12)), COc1ccc(C2=CCN(C(=O)CN(C)Cc3ccoc3)CC2)cc1 , Percent Effect value reported: -6.75

The observed Percent Effect for Cc1ccc(F)cc1S(=O)(=O)N(C)CC(N)=O when tested with Protein translocase subunit SecA (Escherichia coli (strain K12)) stands at -2.13

---

Molecular target: Arginase-2, mitochondrial (Homo sapiens)
Sequence (whole entry): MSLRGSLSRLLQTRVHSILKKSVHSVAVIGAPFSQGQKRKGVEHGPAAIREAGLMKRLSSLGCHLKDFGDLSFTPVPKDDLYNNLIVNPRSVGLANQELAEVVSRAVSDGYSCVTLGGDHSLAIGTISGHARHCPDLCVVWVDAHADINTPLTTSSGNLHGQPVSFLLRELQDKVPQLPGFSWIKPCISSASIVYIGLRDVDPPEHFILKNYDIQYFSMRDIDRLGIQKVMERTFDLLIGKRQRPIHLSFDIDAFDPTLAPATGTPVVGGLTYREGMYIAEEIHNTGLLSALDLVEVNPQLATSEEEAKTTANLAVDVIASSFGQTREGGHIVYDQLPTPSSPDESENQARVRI
Assay: in vitro enzyme assay to detect the production of urea directly proportional to the activity of Arginase II; also: in the data most compounds retested in dose-response had high values
Assay type: functional
Design: scale not given: direction of the effect not stated beside the values
Details: 33.3 µM
measurement name: Percent Effect (%)
Provide only the numeric value, understood in %.

The molecule listed as O=C(NCc1ccccc1-n1cccn1)N1CCN2CCCCC2C1 (configuration not stated) has a reported Percent Effect of 2.22

The value of Percent Effect measured for the molecule CCn1nc(C)c(CCNC(=O)C2CCCN(CC(N)=O)C2)c1C (configuration not stated) turned out to be 9.44

# molecule CCn1nccc1CNC(=O)C1CCCC1 ; its Percent Effect = 1.38

Sample Cn1ccnc1-c1cccc(NC(=O)NCCN2CCOCC2)c1 ; Percent Effect observed: 16.3

Record c1csc(CN2CCO[C@H]3[C@H](OCCN4CCCC4)CC[C@@H]32)n1 , field Percent Effect: -57.9

Form field Percent Effect, entry CCc1nnc2n1CCN(Cc1csc(-c3ccc(C)o3)n1)C2 : 1.23

Notebook: CNC(=O)CN1CCCC12CCN(C(=O)c1ccsc1)CC2 , Percent Effect read as -1.83

The recorded Percent Effect for CCn1cc(N2Cc3nc(N4CCOCC4)ncc3C2=O)cn1 is -9.33

Measured Percent Effect of CCn1ccnc1CNCC1CCCN1c1cc(NC)ncn1 (configuration not stated) : 2.66

Measured Percent Effect, Cc1ccc(-c2nc(CCNC(=O)CCN3CCOC3=O)co2)cc1 : 8.87

Percent Effect reported for this molecule O=C(CSC1=NS(=O)(=O)c2cc(F)ccc2N1)Nc1cccc(Cl)c1 : -0.645

Entry O=C(NCCCO)Nc1cccc(Cl)c1F — recorded Percent Effect = 11
